- target under test: Glutamate receptor ionotropic, NMDA 2B (Homo sapiens)
- protocol text: Displacement of [3H]ifenprodil from GluN2B (unknown origin) expressed in mouse L(tk-) cell membranes co-expressing GluN1a at 1 uM incubated for 120 mins by scintillation counting method relative to control
Entries and their measured inhibition follow.

- smiles str: "O=C(c1ccncc1)N1CCCN(Cc2ccccc2)CC1"
  inhibition: "0%"
- smiles str: "O=C(c1cccs1)N1CCCN(Cc2ccccc2)CC1"
  inhibition: "0%"
- smiles str: "O=C(c1cccc2ccccc12)N1CCCN(Cc2ccccc2)CC1"
  inhibition: "9%"
- smiles str: "O=C(c1ccccc1)N1CCCN(Cc2ccccc2)CC1"
  inhibition: "0%"
- smiles str: "Cc1ccc(CN2CCCN(C(=O)c3ccco3)CC2)c(C)c1"
  inhibition: "0%"
- smiles str: "Cc1ccc(CN2CCCN(C(=O)c3cccs3)CC2)c(C)c1"
  inhibition: "3%"
- smiles str: "O=C(c1ccco1)N1CCCN(Cc2ccccc2)CC1"
  inhibition: "1%"

====

- target under test: Sigma non-opioid intracellular receptor 1 (Cavia porcellus, UniProt Q60492)
- Sequence (Q60492 whole entry): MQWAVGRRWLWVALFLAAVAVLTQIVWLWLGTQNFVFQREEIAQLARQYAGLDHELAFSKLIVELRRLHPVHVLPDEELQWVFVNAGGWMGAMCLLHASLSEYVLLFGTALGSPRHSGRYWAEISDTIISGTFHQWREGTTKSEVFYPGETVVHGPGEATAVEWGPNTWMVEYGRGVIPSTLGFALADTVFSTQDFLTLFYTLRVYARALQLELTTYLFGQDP
- protocol text: Displacement of [3H]-(+)pentazocine from sigma-1 receptor in guinea pig brain membranes after 120 mins by scintillation counting method
pKi: −log10 of the molar value.
Entries and their measured pKi follow.

- smiles str: "Cc1ccc(CN2CCCN(C(=O)c3ccco3)CC2)c(C)c1"
  pKi: 6.16
- smiles str: "Cc1ccc(CN2CCCN(C(=O)c3ccncc3)CC2)c(C)c1"
  pKi: 6.60
- smiles str: "O=C(c1cccs1)N1CCCN(Cc2ccccc2)CC1"
  pKi: 6.83
- smiles str: "O=C(c1ccncc1)N1CCCN(Cc2ccccc2)CC1"
  pKi: 6.57
- smiles str: "O=C(c1cc2ccccc2o1)N1CCCN(Cc2ccccc2)CC1"
  pKi: 8.10
- smiles str: "Cc1ccc(CN2CCCN(C(=O)c3cc4ccccc4o3)CC2)c(C)c1"
  pKi: 7.70
- smiles str: "O=C(c1cccc2ccccc12)N1CCCN(Cc2ccccc2)CC1"
  pKi: 7.39
- smiles str: "Cc1ccc(CN2CCCN(C(=O)c3ccccc3)CC2)c(C)c1"
  pKi: 6.07
- smiles str: "Cc1ccc(CN2CCCN(C(=O)c3cccc4ccccc34)CC2)c(C)c1"
  pKi: 7.15
- smiles str: "O=C(c1ccccc1)N1CCCN(Cc2ccccc2)CC1"
  pKi: 6.94
- smiles str: "Cc1ccc(CN2CCCN(C(=O)c3cccs3)CC2)c(C)c1"
  pKi: 6.47
- smiles str: "O=C(c1ccco1)N1CCCN(Cc2ccccc2)CC1"
  pKi: 6.48
- smiles str: "Cc1ccc(CN2CCCN(C(=O)c3ccc4ccccc4n3)CC2)c(C)c1"
  pKi: 7.54
- smiles str: "O=C(c1ccc2ccccc2n1)N1CCCN(Cc2ccccc2)CC1"
  pKi: 7.72

====

- protocol text: Antioxidant activity in pH 7.4 PBS assessed as H2O2 radical scavenging activity
- Type: functional

- compound: "O=C1O[C@H]([C@@H](O)CO)C(O)=C1O [ASCORBIC ACID]"
  IC50, µg/mL: 19.27
- compound: "O=C(c1cc2ccccc2o1)N1CCCN(Cc2ccccc2)CC1"
  IC50, µg/mL: 15.89
- compound: "Cc1ccc(CN2CCCN(C(=O)c3ccc4ccccc4n3)CC2)c(C)c1"
  IC50, µg/mL: 17.44
- compound: "Cc1ccc(CN2CCCN(C(=O)c3cc4ccccc4o3)CC2)c(C)c1"
  IC50, µg/mL: 18.56
- compound: "O=C(c1ccc2ccccc2n1)N1CCCN(Cc2ccccc2)CC1"
  IC50, µg/mL: 20.35
- compound: "Cc1c(C)c2c(c(C)c1O)CCC(C)(C(=O)O)O2 (stereo unspecified) [TROLOX]"
  IC50, µg/mL: 20.38
